molecular target: IF2 (E. coli, UniProt P0A705 1-890); assay: ITC
Sequence (P0A705 whole entry): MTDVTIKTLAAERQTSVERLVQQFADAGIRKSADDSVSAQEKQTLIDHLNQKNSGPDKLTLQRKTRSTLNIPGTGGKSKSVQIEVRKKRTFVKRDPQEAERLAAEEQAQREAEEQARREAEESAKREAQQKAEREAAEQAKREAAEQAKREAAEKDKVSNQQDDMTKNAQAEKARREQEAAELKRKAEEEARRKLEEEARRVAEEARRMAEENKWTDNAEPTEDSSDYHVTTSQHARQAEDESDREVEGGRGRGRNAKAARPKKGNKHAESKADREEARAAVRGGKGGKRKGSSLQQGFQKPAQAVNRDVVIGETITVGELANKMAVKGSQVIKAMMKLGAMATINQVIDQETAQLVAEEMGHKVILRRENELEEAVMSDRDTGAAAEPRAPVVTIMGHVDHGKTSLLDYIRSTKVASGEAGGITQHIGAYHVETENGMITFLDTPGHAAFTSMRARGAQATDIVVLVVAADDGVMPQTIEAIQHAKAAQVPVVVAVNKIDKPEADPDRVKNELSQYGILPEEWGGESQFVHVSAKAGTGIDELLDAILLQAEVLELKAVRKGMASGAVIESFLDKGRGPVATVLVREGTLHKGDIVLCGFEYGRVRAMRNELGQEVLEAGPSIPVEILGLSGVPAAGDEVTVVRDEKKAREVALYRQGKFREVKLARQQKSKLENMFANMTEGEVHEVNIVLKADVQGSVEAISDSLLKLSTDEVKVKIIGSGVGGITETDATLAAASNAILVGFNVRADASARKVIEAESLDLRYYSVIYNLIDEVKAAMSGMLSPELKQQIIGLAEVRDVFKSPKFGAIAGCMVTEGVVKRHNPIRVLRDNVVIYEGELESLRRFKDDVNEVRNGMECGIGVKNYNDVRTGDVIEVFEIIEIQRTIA
propertyMeasured: Kd (µM)
Give just the number in µM; leave the unit off.

# binder GGGCUCCUAGUACGAGAGGACCGGAGU (structured_RNA) [SRL RNA wt (27 nt)] ; its Kd = 1
